Measured on: human NOD2 (Homo sapiens, UniProt Q9HC29)
Construct: host or cells: HEK-Blue NOD2 (HEK293-derived)
Sequence (Q9HC29 whole entry): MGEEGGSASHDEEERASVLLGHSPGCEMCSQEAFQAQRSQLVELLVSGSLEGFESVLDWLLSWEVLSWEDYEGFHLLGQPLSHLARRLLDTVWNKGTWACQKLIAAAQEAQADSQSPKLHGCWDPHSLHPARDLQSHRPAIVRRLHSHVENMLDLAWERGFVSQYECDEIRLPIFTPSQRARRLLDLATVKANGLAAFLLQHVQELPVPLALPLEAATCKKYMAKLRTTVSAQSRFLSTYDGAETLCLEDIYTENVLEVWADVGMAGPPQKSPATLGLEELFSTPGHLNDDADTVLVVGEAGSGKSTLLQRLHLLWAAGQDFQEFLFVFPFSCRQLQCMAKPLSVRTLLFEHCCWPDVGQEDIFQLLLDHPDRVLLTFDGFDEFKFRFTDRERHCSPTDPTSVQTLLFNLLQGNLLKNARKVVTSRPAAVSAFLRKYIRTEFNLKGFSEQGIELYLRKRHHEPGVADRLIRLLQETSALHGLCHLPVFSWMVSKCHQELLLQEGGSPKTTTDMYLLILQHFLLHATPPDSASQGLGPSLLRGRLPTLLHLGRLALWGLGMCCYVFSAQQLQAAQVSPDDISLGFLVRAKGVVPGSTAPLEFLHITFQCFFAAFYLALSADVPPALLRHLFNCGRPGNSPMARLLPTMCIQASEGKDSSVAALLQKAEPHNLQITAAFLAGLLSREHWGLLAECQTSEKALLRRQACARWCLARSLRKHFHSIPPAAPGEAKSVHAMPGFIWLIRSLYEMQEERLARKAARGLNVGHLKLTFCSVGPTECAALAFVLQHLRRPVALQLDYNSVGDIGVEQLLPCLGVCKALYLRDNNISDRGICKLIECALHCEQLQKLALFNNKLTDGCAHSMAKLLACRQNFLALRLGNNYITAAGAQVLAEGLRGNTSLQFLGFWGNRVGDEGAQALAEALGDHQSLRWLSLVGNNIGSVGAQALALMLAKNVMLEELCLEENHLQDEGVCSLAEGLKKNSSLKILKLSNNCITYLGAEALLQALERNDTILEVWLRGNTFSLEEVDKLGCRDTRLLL
Test description: HEK-Blue NOD2 NF-κB SEAP reporter assay
Format: cell-based
Particulars: HEK-Blue NOD2 cells, 18 h, eight concentrations (1 nM to 10 μM), mean ± SEM
Could you please report measured EC50 for the items listed next?
One number for each entry, in µM.

Query smiles | Measured endpoint | Value reported
CCOCc1nc2c(NC(=O)CCCCCNC(=O)CC[C@@H](NC(=O)[C@@H](NC(=O)CNC(=O)/C=C/c3ccc(O)c(OC)c3)C(C)C)C(=O)OCC)nc3ccccc3c2n1CC(C)(C)O | EC50 | 7.23

Asked: Please indicate EC50 recorded for "CCCCOc1nc(N)c2nc(O)n(Cc3ccc(C(=O)NCCCCCCNC(=O)CC[C@@H](NC(=O)[C@@H](NC(=O)CNC(=O)/C=C/c4ccc(O)c(OC)c4)C(C)C)C(=O)OCC)cc3)c2n1"
Given back: 6.16

----------
Measured on: human TLR7 (Homo sapiens)
Construct: host or cells: HEK-Blue TLR7 (HEK293-derived)
Sequence (Q9NYK1 27-1049): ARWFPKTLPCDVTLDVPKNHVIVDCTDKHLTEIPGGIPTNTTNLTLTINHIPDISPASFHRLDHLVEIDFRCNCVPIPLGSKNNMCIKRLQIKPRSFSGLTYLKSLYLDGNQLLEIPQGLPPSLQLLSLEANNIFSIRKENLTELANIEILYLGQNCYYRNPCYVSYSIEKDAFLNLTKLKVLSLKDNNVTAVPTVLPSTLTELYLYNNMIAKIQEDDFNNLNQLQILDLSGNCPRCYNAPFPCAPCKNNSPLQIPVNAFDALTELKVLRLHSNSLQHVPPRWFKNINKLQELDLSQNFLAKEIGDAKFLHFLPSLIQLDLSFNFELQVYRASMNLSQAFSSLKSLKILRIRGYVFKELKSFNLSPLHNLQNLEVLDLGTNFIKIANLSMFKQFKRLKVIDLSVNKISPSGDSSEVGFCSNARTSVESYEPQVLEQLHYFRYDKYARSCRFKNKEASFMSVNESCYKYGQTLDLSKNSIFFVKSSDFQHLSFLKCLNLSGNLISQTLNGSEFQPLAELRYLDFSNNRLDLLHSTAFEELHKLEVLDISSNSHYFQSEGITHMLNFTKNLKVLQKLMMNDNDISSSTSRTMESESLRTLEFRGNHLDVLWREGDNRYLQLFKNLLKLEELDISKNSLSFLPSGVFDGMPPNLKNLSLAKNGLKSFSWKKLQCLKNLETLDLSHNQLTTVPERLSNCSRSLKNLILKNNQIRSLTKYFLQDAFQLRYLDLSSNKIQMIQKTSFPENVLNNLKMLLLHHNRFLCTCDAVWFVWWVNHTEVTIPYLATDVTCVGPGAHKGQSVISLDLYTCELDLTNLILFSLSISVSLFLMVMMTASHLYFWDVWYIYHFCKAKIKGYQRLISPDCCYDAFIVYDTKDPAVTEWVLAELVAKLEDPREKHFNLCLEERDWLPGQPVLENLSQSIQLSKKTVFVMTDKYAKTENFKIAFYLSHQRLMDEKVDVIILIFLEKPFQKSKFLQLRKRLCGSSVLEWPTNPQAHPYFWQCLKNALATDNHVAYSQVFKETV
Test description: HEK-Blue TLR7 NF-κB SEAP reporter assay
Format: cell-based
Particulars: HEK-Blue TLR7 cells, 18 h, eight concentrations (1 nM to 10 μM), mean ± SEM
Measured endpoint: pEC50
Numbers only, as −log10 of the molar value.

Compound | pEC50
CCOCc1nc2c(N)nc3ccccc3c2n1CC(C)(C)N [compound 7, reference compound] | 5.74
CCCCOc1nc(N)c2nc(O)n(Cc3ccc(C(=O)NCCOCCOCCNC(=O)CC[C@@H](NC(=O)[C@@H](NC(=O)CNC(=O)/C=C/c4ccc(O)c(OC)c4)C(C)C)C(=O)OCC)cc3)c2n1 | 6.38
CCOCc1nc2c(N)nc3ccccc3c2n1CC(C)(C)NC(=O)CCCCCNC(=O)CC[C@@H](NC(=O)[C@@H](NC(=O)CNC(=O)/C=C/c1ccc(O)c(OC)c1)C(C)C)C(=O)OCC | 5.28

Give measured pEC50 for every item shown.
1. CCCCOc1nc(N)c2nc(O)n(Cc3ccc(C(=O)NCCOCCOCCNC(=O)[C@@H](CCC(=O)OCC)NC(=O)[C@@H](NC(=O)CNC(=O)/C=C/c4ccc(O)c(OC)c4)C(C)C)cc3)c2n1
2. CCCCOc1nc(N)c2nc(O)n(Cc3ccc(C(=O)NCCCCCCNC(=O)CC[C@@H](NC(=O)[C@@H](NC(=O)CNC(=O)/C=C/c4ccc(O)c(OC)c4)C(C)C)C(=O)OCC)cc3)c2n1
3. CCCCOc1nc(N)c2nc(O)n(Cc3ccc(C(=O)NCCCOCCOCCOCCCNC(=O)CC[C@@H](NC(=O)[C@@H](NC(=O)CNC(=O)/C=C/c4ccc(O)c(OC)c4)C(C)C)C(=O)OCC)cc3)c2n1

Given back:
1. 6.61
2. 6.62
3. 6.78
